- assaySystem: HLA-A*33:01
- assayInfo: IEDB peptide-MHC binding, purified MHC/competitive/radioactivity; filed as Kd, often an IC50 or EC50 that approximates it; bounds were set here for any values at or beyond the usual limits of such assays
- conditionInfo: source organism: Vaccinia virus WR
parameter: log10 of Kd (log10 of the value in µM)

[
  {
    "sequenceRecord": "MVASDVCKK",
    "parameter": "log10 of Kd",
    "assayResult": 0.84
  },
  {
    "sequenceRecord": "STQQNKLVIR",
    "parameter": "log10 of Kd",
    "assayResult": 0.65
  },
  {
    "sequenceRecord": "MFMLIFNVK",
    "parameter": "log10 of Kd",
    "assayResult": 0.60
  },
  {
    "sequenceRecord": "DMSHLKVALY",
    "parameter": "log10 of Kd",
    "assayResult": 1.17
  },
  {
    "sequenceRecord": "ISDNKKEYK",
    "parameter": "log10 of Kd",
    "assayResult": 1.02
  },
  {
    "sequenceRecord": "AAISKLGINY",
    "parameter": "log10 of Kd",
    "assayResult": 0.08
  },
  {
    "sequenceRecord": "RIENEMKINR",
    "parameter": "log10 of Kd",
    "assayResult": 1.03
  },
  {
    "sequenceRecord": "LLFASMGFK",
    "parameter": "log10 of Kd",
    "assayResult": 0.47
  },
  {
    "sequenceRecord": "EIINFTISMR",
    "parameter": "log10 of Kd",
    "assayResult": -2.11
  },
  {
    "sequenceRecord": "NVQFVDINR",
    "parameter": "log10 of Kd",
    "assayResult": -1.90
  },
  {
    "sequenceRecord": "VLFSIFYKDY",
    "parameter": "log10 of Kd",
    "assayResult": 0.49
  },
  {
    "sequenceRecord": "IMSMMNITR",
    "parameter": "log10 of Kd",
    "assayResult": -2.39
  },
  {
    "sequenceRecord": "YLRLYIILAR",
    "parameter": "log10 of Kd",
    "assayResult": -0.93
  }
]
